# Test system: 885512-296-R-J2-PDC complex spheroid viability
# test-summary: Anticancer human tumor 885512-296-R-J2-PDC patient-derived breast carcinoma cell line growth inhibition; active = viability on the fitted dose curve at most 10% of control; inactive = the rest
# setup-conditions: second compound 3.16 µM; first compound 0.0316 µM
Please reply with one of these outcomes: T = active, F = inactive

Q. I would be grateful if you could indicate the recorded call for COc1ccc([C@@H](O)c2cc(-c3ncnc4cc(N5CCOCC5)ccc34)c(F)cc2Cl)nn1 + NC1CCC(NC2CC2c2ccccc2)CC1 .
A. F

Q. Query CC1(C)CCC(CN2CCN(c3ccc(C(=O)NS(=O)(=O)c4ccc(NCC5CCOCC5)c([N+](=O)[O-])c4)c(Oc4cnc5[nH]ccc5c4)c3)CC2)=C(c2ccc(Cl)cc2)C1 + NC1CC1c1ccc(-c2cccc(O)c2)cc1 next
A. F

Q. Query CC(C)CC(NC(=O)C(Cc1ccccc1)NC(=O)c1cnccn1)B(O)O (stereo not drawn) + NC1CC1c1ccc(-c2cccc(O)c2)cc1 next
A. T

Q. Query CC(C)CC(NC(=O)CNC(=O)c1cc(Cl)ccc1Cl)B1OC(=O)CC(CC(=O)O)(C(=O)O)O1 (stereo not drawn) + NC1CCC(NC2CC2c2ccccc2)CC1 next
A. T

Q. Query Nc1ncn(C2CC(O)C(CO)O2)c(=O)n1 (stereo not drawn) + NC1CCC(NC2CC2c2ccccc2)CC1 next
A. F

Q. Query CC1COCCN1c1cc(C2(S(C)(=N)=O)CC2)nc(-c2ccnc3[nH]ccc23)n1 (stereo not drawn) + NC1CC1c1ccc(-c2cccc(O)c2)cc1 next
A. F

----------
Entries and their viability, T/C
# Test system: 885512-296-R-J2-PDC complex spheroid viability
# test-summary: Anticancer human tumor 885512-296-R-J2-PDC cell line growth inhibition;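 also: spheroids exposed to agents for 7 days before viability read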
# setup-conditions: second compound 0.316 µM; first compound 0.0949 µM; hits give low values

Check out these entries, answers already filled in.
compound | assayed-target | observed-measurement
NS(=O)(=O)OCC1CC(n2ccc3c(NC4CCc5ccccc54)ncnc32)CC1O (configuration not stated) + NC1CC1c1ccc(-c2cccc(O)c2)cc1 | 885512-296-R-J2-PDC complex spheroid viability | 2.27%
Nc1ccccc1NC(=O)c1ccc(CNC(=O)OCc2cccnc2)cc1 + NC1CCC(NC2CC2c2ccccc2)CC1 | 885512-296-R-J2-PDC complex spheroid viability | 51.7%

Q. Consider the compound Nc1ncn(C2CC(O)C(CO)S2)c(=O)n1 (configuration not stated) + NC1CCC(NC2CC2c2ccccc2)CC1 and give its measured viability, T/C.
A. 12.4%

Q. Query CCN(c1cc(-c2ccc(CN3CCOCC3)cc2)cc(C(=O)NCc2c(C)cc(C)[nH]c2=O)c1C)C1CCOCC1 + NC1CCC(NC2CC2c2ccccc2)CC1 next
A. 127%

Q. Query O=C(C=Cc1cccc(S(=O)(=O)Nc2ccccc2)c1)NO + NC1CC1c1ccc(-c2cccc(O)c2)cc1 next
A. 23.3%

Q. Query COc1cc(C2c3cc4c(cc3C(OC3OC5COC(C)OC5C(O)C3O)C3COC(=O)C23)OCO4)cc(OC)c1O (configuration not stated) + NC1CC1c1ccc(-c2cccc(O)c2)cc1 next
A. 17%

Q. Query COc1cc(C2c3cc4c(cc3C(OC3OC5COC(C)OC5C(O)C3O)C3COC(=O)C23)OCO4)cc(OC)c1O (configuration not stated) + NC1CCC(NC2CC2c2ccccc2)CC1 next
A. 24.3%
